List of binding relative to negative control mIgG2 values.
- measured on: C3c (UniProt P01024)
- procedure details: binding screen of Example 5; method and unit not stated
Could you respond with only the numeric value?

binder	measured value
antibody 38F5 (antibody, V domains shown) VH: EVMLVESGGALVKPGGSLKLSCTASGFTFSNYAMSWVRQTPEKRLEWVAQTISSGGRYTYYPDSVKGRFTISRDNARNTLYLQMSSLRSEDTAMYYCVRRYYGNSYWYFDVWGAGTTVTVSS VL: DIVMTQSPSSLSVSAGEKVTMNCKSSQSLLNSGNQKHYLTWYQQKPGQPPKLLIYGASTRGSGVPDRFTGSGSGTDFTLTISSVQAEDLAVYYCQNDHSYPYTFGGGTKLEIK	0.45
antibody 38G10 (antibody, V domains shown) VH: EVQLQQSGPELVKPGDSVKMSCKASGYTFTDFYMDWVKQSHGKSLEWIGYIYPHNGGTTYNQNFTGKATLTVDKSSNTAYMELHSLTSEDSAVYYCARRGGFDFDYWGQGTTLTVSS VL: NIVMTQSPKSMSLSVGERVTLRCKASENVDTYVSWYQQKPEQSPKLLIYGASNRYTGVPDRFTGSGSATEFTLTISSVQAEDLVGYHCGQSHSYPLTFGAGTKLELK	0.13
antibody 62F2 (antibody, V domains shown) VH: DVQLQESGPDLVKPSQSLSLTCTVTGYSITSGYSLHWIRQFPGNKLEWMGYIHYSGSTNYNPSLKSRISITRDTSKNQFFLKLNSVTSEDTATYHCARAWDYLDYWGQGTTLTVSS VL: DIQMTQSPASLSASVGETVTITCRASENIYSQLAWYQQKQGKSPQLLVYDAKTLAEGVPSRFSGSGSDTQFSLKIISLQPEDFGRYYCHHHFGILYTFGGGTKLEMK	0.43
antibody 63A3 (antibody, V domains shown) VH: DVQLQESGPGLVKPSQSLSLTCSVTGYSITSGYYWNWIRQFPGNKLEWMGYIRYDGSNNYNPSLKNRISITRDTSKNQVFLKLNSVTPEDTATYYCARHYGYDGGAFDFWGQGTTLTVSS VL: DIQMTQSPASLSASVGETVTITCRTSENIYNYLVWYQQKQGKSPQLLVYNAKTLEEGVPSRFSGSGSGTQFSLKVNSLQPEDFGSYYCQHHYGTPFTFGSGTKLEIK	0.55
antibody 3G8 (antibody, V domains shown) VH: EIQLQQSGAELVKPGASVKISCMASGYSFTGYNMNWVKQSHGKGLEWIGNINPYYDSTSYNQKFKGKATLTVDKSSSTAYMQLNSLTSEDSAVYYCARENYDFVGFAYWGQGTLVTVSA VL: QIVLSQSPAILSASPGEKVTMTCRASSSVSYMHWFQQKPGSSPKPWIYVTSNLASGVPPRFSGSGSGTSYSLTISRVEAEDAATYYCQQWSTNPLTFGAGTKLELK	0.22

Could you now look at the following binder, please?
Query: Form field: reported binding relative to negative control mIgG2 of antibody 3D8 (antibody, V domains shown) VH: EIQLQQSGAELVKPGASVKISCKASGYSFTGYNMNWVKQSHGKSLEWIGNINPYYGSTNYNQKFKGKATLTVDKSSTTAYMQLDSLTSEDSAVYYCARGYYGGNYPFAYWGQGTLVTVSA VL: DIQMTQSPASLSASVGETVTITCRASENIYSYLAWYQQKQGKSPQLLVYNAKTLAEGVPSRFSGSGSGTQFSLKINSLQPEDFGSYYCQHYYGTPYTFGGGSKVEIK
Result: 0.17
